molecular target: UniProt P11362; test: Inhibition of N-terminal GST-tagged human FGFR1 cytoplasmic domain (398 to 822 residues) expressed in baculovirus expression system at […] using FAM-labeled peptide as substrate after 10 mins by mobility shift assay relative to control
The following compounds are listed with their measured inhibition values.
metric: inhibition (%)

CCOc1ccc(Nc2cc(NC(=O)c3ccc(F)cc3)ncn2)cc1 | 5.9
CCOc1ccc(Nc2cc(NC(=O)c3ccccc3)ncn2)cc1 | -8.8
COc1cccc(Nc2cc(NC(=O)c3ccccc3)ncn2)c1 | -6
COc1cccc(Nc2cc(Nc3ccc(Cl)cc3)ncn2)c1 | -4
O=C(Nc1cc(Nc2cccc(Cl)c2)ncn1)c1ccc(F)cc1 | 4.2
CCOC(=O)c1ccc(Nc2cc(NC(=O)CCCC(=O)O)ncn2)cc1 | -5.3
